Source listed as patent US10221163B2.

# experimental-system: NDM-1 (Klebsiella pneumoniae, UniProt C7C422)
# Sequence (C7C422 whole entry, looked up, species assumed): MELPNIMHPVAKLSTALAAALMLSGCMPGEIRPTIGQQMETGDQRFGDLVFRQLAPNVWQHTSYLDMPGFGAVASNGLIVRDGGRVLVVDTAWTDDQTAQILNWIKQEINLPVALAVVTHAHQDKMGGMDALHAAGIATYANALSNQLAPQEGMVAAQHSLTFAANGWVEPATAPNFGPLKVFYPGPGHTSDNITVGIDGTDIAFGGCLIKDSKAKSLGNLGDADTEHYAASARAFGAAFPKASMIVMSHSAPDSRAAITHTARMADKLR
# experiment-summary: biochemical
# Assay type: biochemical
# particulars: fluorescence assay, CCF2-FA substrate, 1 pM enzyme, 2 hours at 25° C.; read-out: NDM-1 IC50
pIC50: −log10 of the molar value.

compound: Nc1nc2c(-c3ccc(S(=O)(=O)NC[C@H]4CCCN4)c(S(N)(=O)=O)c3-c3nn[nH]n3)cccc2[nH]1 [Example 261]
pIC50: 10.16
--
compound: Nc1nc2c(-c3ccc(S(=O)(=O)NCC4(F)CNC4)c(S(N)(=O)=O)c3-c3nnn[nH]3)cccc2s1 [Example 46]
pIC50: 10.24
--
compound: NCCn1nc2cccc(-c3ccc(S(=O)(=O)N[C@@H]4CCNC4)c(S(N)(=O)=O)c3-c3nn[nH]n3)c2n1 [Example 279]
pIC50: 9.63
--
compound: CN([C@H]1CCNC1)S(=O)(=O)c1ccc(-c2cccc3sc(N)nc23)c(-c2nnn[nH]2)c1S(N)(=O)=O [Example 65]
pIC50: 9.33

---

# experimental-system: IMP-1 (Serratia marcescens)
# Sequence (P52699 whole entry, looked up, species assumed): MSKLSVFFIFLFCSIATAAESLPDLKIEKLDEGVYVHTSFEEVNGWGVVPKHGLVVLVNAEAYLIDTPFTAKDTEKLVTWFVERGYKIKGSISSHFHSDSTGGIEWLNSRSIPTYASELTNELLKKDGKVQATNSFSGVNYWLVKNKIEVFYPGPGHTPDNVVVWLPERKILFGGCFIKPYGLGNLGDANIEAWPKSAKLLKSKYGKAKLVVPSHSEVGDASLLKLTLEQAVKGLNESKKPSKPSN
# experiment-summary: biochemical
# Type: biochemical
# particulars: fluorescence assay, CCF2-FA substrate, 2 pM enzyme, 2 hours at 25° C.; read-out: IMP-1 IC50
As shown below, each of these compounds has a reported IC50 value.
measured-parameter: IC50

compound: CNCCCN(C)S(=O)(=O)c1ccc(-c2cccc3sc(N)nc23)c(-c2nnn[nH]2)c1S(N)(=O)=O.O=C(O)C(F)(F)F [Example 93, 2,2,2-trifluoroacetate]
result: 5.29 nM
//
compound: Nc1ncccc1-c1ccc(S(=O)(=O)N[C@H]2C[C@@H]2N)c(S(N)(=O)=O)c1-c1nn[nH]n1
result: 1.83 nM
//
compound: Nc1nc2c(-c3ccc(S(=O)(=O)N[C@H]4CNC[C@@H]4F)c(S(N)(=O)=O)c3-c3nnn[nH]3)cccc2s1
result: 0.558 nM

---

# experimental-system: IMP-1 (Serratia marcescens)
# experiment-summary: biochemical
# Assay type: biochemical
# particulars: fluorescence assay, CCF2-FA substrate, 2 pM enzyme, 2 hours at 25° C.; read-out: IMP-1 IC50
pIC50: −log10 of the molar value.
measured-parameter: pIC50

compound: Nc1nc2c(-c3ccc(S(=O)(=O)NC[C@@H]4CCNC4)c(S(N)(=O)=O)c3-c3nn[nH]n3)cccc2[nH]1 [Example 263]
measured-parameter: pIC50
numeric-readout: 9.06
//
compound: Nc1nc2c(-c3ccc(S(=O)(=O)N[C@H]4CNC[C@H]4N)c(S(N)(=O)=O)c3-c3nn[nH]n3)cccc2[nH]1 [Example 241]
measured-parameter: pIC50
numeric-readout: 9.13
//
compound: Nc1nc2c(-c3ccc(S(=O)(=O)N[C@@]4(CO)CCNC4)c(S(N)(=O)=O)c3-c3nnn[nH]3)cccc2[nH]1 [Example 176]
measured-parameter: pIC50
numeric-readout: 9.14

---

# experimental-system: VIM-1 (Pseudomonas aeruginosa (strain ATCC 15692 / DSM 22644 / CIP 104116 / JCM 14847 / LMG 12228 / 1C / PRS 101 / PAO1))
# experiment-summary: biochemical
# particulars: VIM-1 IC50, fluorescence assay, CCF2-FA substrate, 30 pM enzyme, 2 hours at 25° C.
Where a name gives a salt, the structure may show the parent alone.

molecule: NCC(CN)NS(=O)(=O)c1ccc(-c2ccnc(-c3cnc(N)[nH]3)c2)c(-c2nnn[nH]2)c1S(N)(=O)=O [Example 437]
units-text: nM
IC50: 0.952

molecule: NC[C@H](N)CNS(=O)(=O)c1ccc(-c2cnccc2N)c(-c2nn[nH]n2)c1S(N)(=O)=O [Example 223]
units-text: nM
IC50: 1.41

molecule: Nc1ccc(-c2ccc(S(=O)(=O)NC[C@@]3(N)CCNC3)c(S(N)(=O)=O)c2-c2nn[nH]n2)cn1 [Example 369]
units-text: nM
IC50: 0.302

molecule: C[C@H](CN)NS(=O)(=O)c1ccc(-c2cccc(N)n2)c(-c2nn[nH]n2)c1S(N)(=O)=O [Example 318]
units-text: nM
IC50: 0.142

molecule: NCCNCCNS(=O)(=O)c1ccc(-c2ccc(N)nc2)c(-c2nn[nH]n2)c1S(N)(=O)=O [Example 482]
units-text: nM
IC50: 0.333

molecule: CNC(=O)CNS(=O)(=O)c1ccc(-c2cccc3sc(N)nc23)c(-c2nnn[nH]2)c1S(N)(=O)=O [Example 23]
units-text: nM
IC50: 0.224

molecule: Nc1nc2c(-c3ccc(S(=O)(=O)NC[C@]4(N)CCNC4)c(S(N)(=O)=O)c3-c3nn[nH]n3)cccc2s1 [Example 366]
units-text: nM
IC50: 0.105

molecule: Nc1ncccc1-c1ccc(S(=O)(=O)NC[C@H]2CNCCN2)c(S(N)(=O)=O)c1-c1nn[nH]n1 [Example 316]
units-text: nM
IC50: 0.211

molecule: NCc1csc(Nc2cccc(-c3ccc(S(=O)(=O)N[C@@H]4CCNC4)c(S(N)(=O)=O)c3-c3nn[nH]n3)c2)n1 [Example 290]
units-text: nM
IC50: 0.104

molecule: Nc1nc2c(-c3ccc(S(=O)(=O)N[C@H]4CNC[C@@H]4O)c(S(N)(=O)=O)c3-c3nnn[nH]3)cccc2[nH]1 [Example 169]
units-text: nM
IC50: 0.581

molecule: NCCNS(=O)(=O)c1ccc(-c2cccc3[nH]c([C@@H](N)CO)nc23)c(-c2nn[nH]n2)c1S(N)(=O)=O [Example 331]
units-text: nM
IC50: 0.18

molecule: NC[C@@H](O)CNS(=O)(=O)c1ccc(-c2cnc(N)c(F)c2)c(-c2nn[nH]n2)c1S(N)(=O)=O [Example 478]
units-text: nM
IC50: 0.0914

molecule: COC(=O)[C@H]1C[C@@H](NS(=O)(=O)c2ccc(-c3cccc4sc(N)nc34)c(-c3nnn[nH]3)c2S(N)(=O)=O)CN1 [Example 128]
units-text: nM
IC50: 0.199

molecule: NCC(CN)NS(=O)(=O)c1ccc(-c2cccn3ccnc23)c(-c2nn[nH]n2)c1S(N)(=O)=O [Example 386]
units-text: nM
IC50: 0.168

molecule: Nc1nc2c(-c3ccc(S(=O)(=O)N[C@H]4CN[C@@H](CO)C4)c(S(N)(=O)=O)c3-c3nnn[nH]3)cccc2s1 [Example 81]
units-text: nM
IC50: 0.135

molecule: Nc1nc2c(-c3ccc(S(=O)(=O)N[C@@H]4CCCNC4)c(S(N)(=O)=O)c3-c3nnn[nH]3)cccc2s1 [Example 69]
units-text: nM
IC50: 0.185

molecule: Nc1nc2c(-c3ccc(S(=O)(=O)N[C@H]4CO[C@H]5[C@H]4OC[C@H]5O)c(S(N)(=O)=O)c3-c3nnn[nH]3)cccc2s1 [Example 50]
units-text: nM
IC50: 0.25

molecule: Nc1nc2c(-c3ccc(S(=O)(=O)NC[C@H]4CCNC4)c(S(N)(=O)=O)c3-c3nn[nH]n3)cccc2[nH]1 [Example 259]
units-text: nM
IC50: 0.229

molecule: Nc1nc2c(-c3ccc(S(=O)(=O)NCC(=O)O)c(S(N)(=O)=O)c3-c3nn[nH]n3)cccc2s1 [Example 153]
units-text: nM
IC50: 1.05

molecule: Cc1ccc(-c2ccc(S(=O)(=O)N[C@@H]3CCNC3)c(S(N)(=O)=O)c2-c2nn[nH]n2)c2nc(N)[nH]c12 [Example 285]
units-text: nM
IC50: 0.0916

molecule: Cn1c(N)nc2c(-c3ccc(S(=O)(=O)NC[C@H](O)CN)c(S(N)(=O)=O)c3-c3nn[nH]n3)cccc21 [Example 302]
units-text: nM
IC50: 0.141

molecule: Nc1ncc(-c2ccc(S(=O)(=O)N[C@@H]3CNC[C@@H]3N)c(S(N)(=O)=O)c2-c2nn[nH]n2)s1 [Example 321]
units-text: nM
IC50: 0.958

molecule: Nc1ncc(-c2cc(-c3ccc(S(=O)(=O)N[C@@H]4CCNC4)c(S(N)(=O)=O)c3-c3nnn[nH]3)ccn2)[nH]1 [Example 440]
units-text: nM
IC50: 0.571

molecule: NCCNS(=O)(=O)c1ccc(-c2cccc3ccc(N)nc23)c(-c2nn[nH]n2)c1S(N)(=O)=O [Example 355]
units-text: nM
IC50: 0.141

molecule: NCC1(NS(=O)(=O)c2ccc(-c3ccc(N)nc3)c(-c3nn[nH]n3)c2S(N)(=O)=O)CCNC1 (stereo in doubt) [Example 486, dihydrochloride]
units-text: nM
IC50: 0.321

molecule: Nc1nc2c(-c3ccc(S(=O)(=O)N[C@@H]4C[C@H]4N)c(S(N)(=O)=O)c3-c3nn[nH]n3)cccc2s1 [Example 388]
units-text: nM
IC50: 0.375

molecule: N[C@@H]1C=C(c2ccc(S(=O)(=O)N[C@@H]3CCNC3)c(S(N)(=O)=O)c2-c2nn[nH]n2)CCC1 [Example 340]
units-text: nM
IC50: 2.89
